Assign inhibition at 10 µM to each entry below.
Target: serotonin transporter (Homo sapiens)
Construct: expressed in transfected cells; host or cells: CHO cells
Sequence (P31645 whole entry): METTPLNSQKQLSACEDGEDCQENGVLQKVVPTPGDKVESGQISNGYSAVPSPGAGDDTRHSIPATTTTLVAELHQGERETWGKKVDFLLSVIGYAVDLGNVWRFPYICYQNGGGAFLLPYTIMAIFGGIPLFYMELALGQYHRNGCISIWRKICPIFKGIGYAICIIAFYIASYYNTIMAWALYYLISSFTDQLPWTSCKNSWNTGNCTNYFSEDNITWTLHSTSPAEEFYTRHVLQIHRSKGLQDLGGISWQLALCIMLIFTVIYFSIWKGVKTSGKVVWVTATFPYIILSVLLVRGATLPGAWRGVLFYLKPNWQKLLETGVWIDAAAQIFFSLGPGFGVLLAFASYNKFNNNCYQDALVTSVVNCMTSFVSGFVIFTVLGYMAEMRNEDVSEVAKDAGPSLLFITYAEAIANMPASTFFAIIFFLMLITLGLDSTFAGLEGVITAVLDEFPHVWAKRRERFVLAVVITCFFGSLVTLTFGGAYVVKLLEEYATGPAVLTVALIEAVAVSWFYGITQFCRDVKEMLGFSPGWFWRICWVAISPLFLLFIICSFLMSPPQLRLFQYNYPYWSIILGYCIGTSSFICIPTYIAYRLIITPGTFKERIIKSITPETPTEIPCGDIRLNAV
Assay: Serotonin transporter binding radioligand inhibition ([3H]-imipramine)
Details: concentration 10 μM; read-out: serotonin binding inhibition
Where a name gives a salt, the structure may show the parent alone.

Example molecules with recorded inhibition at 10 µM:
molecule="CN(C)CCC(Oc1ccc(CCO)cc1)c1ccccc1 (stereo not drawn) [Example 24]" observed_result="68 to 82%"
molecule="CNCCC(Oc1cc(CCCCO)cc(CCCCO)c1)c1ccccc1 (stereo not drawn) [Example 22]" observed_result="68 to 82%"
molecule="CNCCC(Oc1ccc(C/C=C/CO)cc1)c1ccccc1 (stereo not drawn) [Example 25]" observed_result="68 to 82%"
molecule="CNCC[C@H](Oc1ccc(CCO)cc1)c1cccs1 [Example 28]" observed_result="68 to 82%"
molecule="CNCCC(Oc1ccc(CCCCCCO)cc1)c1ccccc1 (stereo not drawn) [Example 26]" observed_result="68 to 82%"

Batch of 6 molecules: report inhibition at 10 µM for each.
1. CNCC[C@@H](Oc1ccc(CCO)cc1)c1ccccc1.Cl [Example 3, hydrochloride]
2. OCCc1ccc(OC(c2ccccc2)C2CNCCO2)cc1 (stereo not drawn) [Example 29]
3. CNCCC(Oc1cc(CCCO)cc(CCCO)c1)c1ccccc1 (stereo not drawn) [Example 21]
4. CN(C)CC(Oc1ccc(CCO)cc1)C1CCCCC1O (stereo not drawn) [Example 31]
5. CNCCC(Oc1ccc(CCCO)cc1)c1ccccc1 (stereo not drawn) [Example 16, hydrochloride]
6. CNCC[C@@H](Oc1ccc(CCO)cc1)c1cccs1 [Example 13]

a:
["68 to 82%", "68 to 82%", "68 to 82%", "68 to 82%", "78%", "79%"]

Batch of 7 molecules: report inhibition at 10 µM for each.
1. CNCCC(Oc1cc(CCO)cc(CCO)c1)c1ccccc1 (stereo not drawn) [Example 20]
2. CNCCC(Oc1ccc(CCO[C@@H]2O[C@H](CO)[C@@H](O)[C@H](O)[C@H]2O)cc1)c1ccccc1 (stereo partly drawn) [Example 23]
3. CCCC(CCC)C(=O)N(C)CCC(Oc1ccc(CCO)cc1)c1ccccc1 (stereo not drawn) [Example 11]
4. CNCCC(Oc1cc(CO)cc(CO)c1)c1ccccc1 (stereo not drawn) [Example 19, hydrochloride]
5. CNCCC(Oc1ccc(CCCCO)cc1)c1ccccc1 (stereo not drawn) [Example 14, hydrochloride]
6. Cl.NCCC(Oc1ccc(CCO)cc1)c1ccccc1 (stereo not drawn) [Example 12, hydrochloride]
7. Cl.OCCc1ccc(OCC2CNCCO2)cc1 (stereo not drawn) [Example 18, hydrochloride]

a:
["68 to 82%", "68 to 82%", "68 to 82%", "79%", "89%", "78%", "68 to 82%"]
